Target: human calcium receptor (Homo sapiens, UniProt P41180, R990G)
Construct: expressed in transfected cells; host or cells: HEK 293
Sequence (P41180 20-1078 R990G): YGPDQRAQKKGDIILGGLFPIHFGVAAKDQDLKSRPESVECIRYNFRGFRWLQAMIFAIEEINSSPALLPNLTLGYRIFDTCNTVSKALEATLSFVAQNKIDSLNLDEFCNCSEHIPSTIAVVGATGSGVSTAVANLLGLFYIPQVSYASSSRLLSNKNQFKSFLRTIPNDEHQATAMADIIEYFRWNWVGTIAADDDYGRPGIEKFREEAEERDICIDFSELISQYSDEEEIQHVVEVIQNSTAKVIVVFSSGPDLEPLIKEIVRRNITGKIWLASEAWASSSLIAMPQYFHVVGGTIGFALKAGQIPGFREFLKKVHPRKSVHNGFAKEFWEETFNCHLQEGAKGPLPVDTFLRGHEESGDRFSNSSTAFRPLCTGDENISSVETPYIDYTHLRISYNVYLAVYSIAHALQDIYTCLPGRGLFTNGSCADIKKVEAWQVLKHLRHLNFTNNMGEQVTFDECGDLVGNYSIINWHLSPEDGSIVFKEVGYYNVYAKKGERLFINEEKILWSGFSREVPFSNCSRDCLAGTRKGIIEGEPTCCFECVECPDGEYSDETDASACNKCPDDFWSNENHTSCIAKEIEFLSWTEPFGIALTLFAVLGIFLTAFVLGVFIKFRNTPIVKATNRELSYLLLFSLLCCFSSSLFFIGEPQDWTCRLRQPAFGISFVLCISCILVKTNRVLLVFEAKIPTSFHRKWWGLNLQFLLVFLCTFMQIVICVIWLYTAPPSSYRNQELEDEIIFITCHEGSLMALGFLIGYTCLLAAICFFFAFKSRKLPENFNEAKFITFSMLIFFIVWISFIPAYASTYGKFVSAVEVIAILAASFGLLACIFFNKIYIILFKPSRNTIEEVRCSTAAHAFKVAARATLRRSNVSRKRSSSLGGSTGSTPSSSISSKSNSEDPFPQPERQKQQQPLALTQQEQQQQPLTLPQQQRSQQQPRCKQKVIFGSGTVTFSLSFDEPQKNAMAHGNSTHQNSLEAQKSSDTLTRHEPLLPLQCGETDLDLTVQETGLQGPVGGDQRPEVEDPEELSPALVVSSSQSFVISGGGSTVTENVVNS
Assay: increases in [Ca^2+ ]i in HEK-293 cells expressing the human calcium receptor (fura-2 loaded HEK 293/pHuPCaR4.0 cells), % activity
Format: cell-based
Details: HEK293; 33 ng/mL
Readout kind: activity at […] (%)
Provide the reading as a plain figure in %.

Case COc1ccc(CNC(C)c2ccccc2OC)cc1C (centres unmarked) [Compound 23H] , human calcium receptor (Homo sapiens, UniProt P41180, R990G), activity at […] recorded as 77

# activity at […] measured on human calcium receptor (Homo sapiens, UniProt P41180, R990G) for item C[C@H](CCc1cccc(OC(F)(F)F)c1)N[C@H](C)c1cccc2ccccc12 [Compound 22Y] = 64

The recorded activity at […] with human calcium receptor (Homo sapiens, UniProt P41180, R990G) for CC(C)c1ccc([C@@H](C)N[C@H](C)c2cccc3ccccc23)cc1 [Compound 14L] was 78

I looked up C[C@H](CCc1cccc(OC(F)(F)F)c1)N[C@@H](C)c1cccc2ccccc12 [Compound 22X] and its activity at […] for human calcium receptor (Homo sapiens, UniProt P41180, R990G) was 48

Case COc1cccc([C@@H](C)NCc2cccc3ccccc23)c1 [Compound 25F] , human calcium receptor (Homo sapiens, UniProt P41180, R990G), activity at […] recorded as 76

Values from patent US6211244A
